System: Maver1
Assay: Antiproliferative activity against human Maver1 cells measured after 3 days by celltiter-glo luminescence assay
Assay type: functional, cell-based
Conditions: Maver1, 72 h
Catalogue of pIC50 values
Remember, pIC50 is on a log scale: it is -log10 of the molar concentration.

[[record]]
structure_string = "Cn1cc(-c2ccc3c(c2)CC[C@]32NC(=O)N(CC(=O)N3Cc4cc(F)ccc4OC[C@H]3C(F)(F)F)C2=O)cn1"
assay_readout = "pIC50"
reported_value = 8.59


Continue with the molecule presented below.
Lab note: "CNC(=O)Nc1ccc2c(c1)CC[C@@]21OC(=O)N(CC(=O)N(Cc2ccc(F)cc2)[C@@H](C)C(F)(F)F)C1=O" gave pIC50 of 6.65
